# experimental protocol: chemical genetic growth profiling, strain panel (AID 1159580);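 further: tested at 20 µM; growth read once vehicle control cultures reached saturation at 30 °C; 1 = growth at the plate median or of vehicle wells; lower values mean less growth of the strain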
# settings: S. cerevisiae deletion strains, growth OD, locus YEL037C, strain rad23, active compounds read low
About 2,000 (36%) of roughly 5,500 compounds were called active. About 18% were inconclusive and are not listed. The list shows a part of the results. Where a SMILES comes first, the peptide text is derived from it.

compound	normalized growth
CC(=O)N[C@@H](CC(=O)O)C(=O)N[C@@H](CCC(=O)O)C(=O)O (Ac-Asp-Glu-OH)	1.01
CC12CCCCC1(Br)[N+](=O)N2[O-] (configuration not stated)	0.998
COc1ccnc(CS(=O)c2nc3ccc(OC(F)F)cc3[nH]2)c1OC (configuration not stated)	1.03
CC(C)/C(O)=C1/C(=O)O[C@@H](c2ccoc2)[C@]2(C)C(O)[C@@H](O)[C@@]34OC5(C)OC67CC(C)(C(O)[C@]6(O)[C@@H](O)[C@]3(O5)C12)[C@H](CC(=O)O)[C@]74C (some centres not stated)	0.99
O=C(O)CCCCCCCC(=O)O	1
Clc1ccc(COC(Cn2ccnc2)c2ccc(Cl)cc2Cl)cc1 (configuration not stated)	0.0573
O=C(O)CCC1NCC2CC1CN1CCCCC21 (configuration not stated)	0.999

====

Documented normalized growth across a set of molecules
# experimental protocol: chemical genetic growth profiling, strain panel (AID 1159580);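 further: tested at 20 µM; growth read once vehicle control cultures reached saturation at 30 °C; 1 = growth at the plate median or of vehicle wells; lower values mean less growth of the strain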
# settings: S. cerevisiae deletion strains, growth OD, locus YJL134W, strain LCB3, active compounds read low
In all, about 5,500 compounds went through this assay and about 2,000 (36%) were called active. Another 18% or so got no clear call; they are omitted. The list shows a part of the results.

molecule	normalized growth
CC(=O)Oc1ccc2c(c1)CCC1C2CC[C@]2(C)C(=O)CCC12 (some centres not stated)	1.01
CC(=O)C1CCC2C3CCC4C[C@H](O)CCC4(C)C3C[C@H](O)C12C (some centres not stated)	1.01
NCC[C@@H](O)C(=O)N[C@@H]1C[C@H](N)[C@@H](O[C@H]2O[C@H](CN)[C@@H](O)[C@H](O)[C@H]2O)[C@H](O)[C@H]1O[C@H]1O[C@H](CO)[C@@H](O)[C@H](N)C1O (some centres not stated)	1.01
C1N2CN3CN1CN(C2)C3	0.98
O=c1cccc2n1CC1CC2CN2CCCC[C@@H]12 (some centres not stated)	0.983
Cc1cccc(C)c1NC(=O)C1CCCCN1C (configuration not stated)	1.01
CN(C)C(=O)Oc1ccc[n+](C)c1	1.01
NCCCCCC(=O)O	0.992
CCC(C)C(=O)c1c(O)c(C)c2oc3c(C)c(O)c(C(=O)C(C)CC)c(O)c3c2c1O (configuration not stated)	0.978
CC(=O)O[C@H]1C[C@@]2(C)[C@@H](C[C@@H](O)C3[C@]2(C)CC[C@H]2[C@H](C)[C@H](O)CC[C@]32C)/C1=C(/CCC=C(C)C)C(=O)O (some centres not stated)	1.01
COc1ccc(-c2cc(=O)c3c(OC)cc(OC)cc3o2)cc1	0.994
COc1cc(C)c2c(=O)cc(-c3ccccc3)oc2c1	0.987
CC1CCC(NC(=O)N(CCCl)N=O)CC1 (configuration not stated)	0.997
OC[C@H]1O[C@@H](n2cnc3c(NCc4ccco4)ncnc32)[C@H](O)[C@@H]1O	1.01
CC(=O)O[C@]1(C)CC[C@@]23CC1C(C)(C)[C@@H]2CC[C@H]3C	1.01
NCCCNCCSP(=O)(O)O	0.989
NC(=O)NC1NC(=O)NC1=O (configuration not stated)	0.991
CC(C)=CC1C(C(=O)OCc2cccc(Oc3ccccc3)c2)C1(C)C (configuration not stated)	0.987
CC(=O)O[C@@H]1CC2C(C)(C)[C@H](O)CC[C@]2(C)C2CC[C@@]3(C)[C@H](c4ccoc4)OC(=O)C4OC43[C@@]21C (some centres not stated)	0.991
C[C@@H]1CC[C@H]2C(C)(C)C3CC12CC[C@@]3(C)O (some centres not stated)	1.01
C[C@]12CCC3C(CC[C@H]4C[C@@H](O)CC[C@]34C)C1CC[C@@H]2O (some centres not stated)	1.02
CC(=O)O[C@@H]1CC2C(C)(C)[C@H](O)CC[C@]2(C)C2CC[C@@]3(C)[C@H](c4ccoc4)OC(=O)[C@H]4O[C@]43[C@@]21C (some centres not stated)	1.01

====

# experimental protocol: chemical genetic growth profiling, strain panel (AID 1159580);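 further: tested at 20 µM; growth read once vehicle control cultures reached saturation at 30 °C; 1 = growth at the plate median or of vehicle wells; lower values mean less growth of the strain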
# settings: S. cerevisiae deletion strains, growth OD, locus YNL322C, strain KRE1 (second series), active compounds read low
In all, about 5,500 compounds went through this assay and about 2,000 (36%) were called active. Roughly 18% stayed inconclusive and do not appear here. The list shows a part of the results.
outcome measure: normalized growth

compound	recorded number
Cc1cc(/C=C/c2ccc3cc(N(C)C)ccc3[n+]2C)c(C)n1-c1ccccc1	1.01
O=c1oc2ccccc2cc1O	0.989
O=C(O)C1CCCNC1 (centres undefined)	1.02
NCCCNCCSP(=O)(O)O	0.956
O=C(O)[C@@H](S)[C@@H](S)C(=O)O	0.97
COC1C=CC23c4cc5c(cc4CN(CC2O)[C@@H]3C1)OCO5 (some centres undefined)	0.935
Clc1ccc(CO/N=C(/Cn2ccnc2)c2ccc(Cl)cc2Cl)c(Cl)c1	0.0683
COP(=S)(OC)Oc1ccc([N+](=O)[O-])cc1	0.99
C[C@]12CCC3c4ccc(O)cc4CCC3C1CCC2=O (some centres undefined)	1.05
O=C(O)CCC1NCC2CC1CN1CCCCC21 (centres undefined)	0.97
NC(N)=NCCN1CCCCCCC1	1.05
CC(=O)O[C@@H]1CC2C(C)(C)C(=O)C3OC3[C@]2(C)C2CC[C@@]3(C)[C@H](c4ccoc4)OC(=O)C4OC43[C@@]21C (some centres undefined)	0.978
CC(C)c1nc(N(C)S(C)(=O)=O)nc(-c2ccc(F)cc2)c1/C=C/[C@@H](O)C[C@@H](O)CC(=O)O	1.03
CC1CCC(NC(=O)N(CCCl)N=O)CC1 (centres undefined)	0.121
NCCCCC(=O)O	1.02
CC(=O)C1CCC2C3CCC4C[C@H](O)CCC4(C)C3C[C@H](O)C12C (some centres undefined)	0.979
Clc1ccc(C(c2ccccc2Cl)C(Cl)Cl)cc1 (centres undefined)	0.976
Oc1c(Cl)cc(Cl)c(Cl)c1Cc1c(O)c(Cl)cc(Cl)c1Cl	0.0815
CC(=O)C1CC[C@H]2C3CC[C@H]4C[C@H](O)CC[C@]4(C)C3CC[C@]12C (some centres undefined)	1.01
Cc1cccc(C)c1NC(=O)C1CCCCN1C (centres undefined)	0.966
O=NN(CCCl)C(=O)NCCCl	0.764
C=C1C(=O)[C@]23[C@H](O)[C@H]1CC[C@H]2[C@@]12CO[C@]3(O)[C@H](O)[C@@H]1C(C)(C)CC[C@@H]2O	0.994
C[C@]12CCC3c4ccc(OC(=O)c5ccccc5)cc4CCC3C1CCC2=O (some centres undefined)	0.994
CC(=O)Oc1ccc2c(c1)CCC1C2CC[C@]2(C)C(=O)CCC12 (some centres undefined)	0.967
COc1ccnc(CS(=O)c2nc3ccc(OC(F)F)cc3[nH]2)c1OC (centres undefined)	1.05
COC[C@]12CN(C=O)C3[C@@H]4[C@H](OC)C1[C@]3(C1CC3(O)C(OC)C(O)C4(OC(C)=O)C1C3OC(=O)c1ccccc1)[C@@H](OC)C[C@H]2O (some centres undefined)	1.02
Clc1ccc(COC(Cn2ccnc2)c2ccc(Cl)cc2Cl)cc1 (centres undefined)	0.067
COc1cc(NS(C)(=O)=O)ccc1Cc1c2ccccc2nc2ccccc12	0.822
CC(C)/C(O)=C1/C(=O)O[C@@H](c2ccoc2)[C@]2(C)C(O)[C@@H](O)[C@@]34OC5(C)OC67CC(C)(C(O)[C@]6(O)[C@@H](O)[C@]3(O5)C12)[C@H](CC(=O)O)[C@]74C (some centres undefined)	1.02

====

Documented normalized growth across a set of molecules
# experimental protocol: chemical genetic growth profiling, strain panel (AID 1159580);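 further: tested at 20 µM; growth read once vehicle control cultures reached saturation at 30 °C; 1 = growth at the plate median or of vehicle wells; lower values mean less growth of the strain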
# settings: S. cerevisiae deletion strains, growth OD, locus YER110C, active compounds read low
Out of some 5,500 compounds screened, about 2,000 (36%) were called active. About 18% were inconclusive and are not listed. Some of the results follow.
outcome measure: normalized growth

molecule	outcome measure	recorded number
COc1ccc2c(c1)OCC(Cc1ccc(OC)c(O)c1)C2=O (stereo not given)	normalized growth	0.931
CC1OC(O[C@H]2/C=C/C=C/C=C/C=C/C=C/C=C/C=C/[C@H](C)[C@@H](O)[C@@H](C)[C@H](C)OC(=O)CC(O)CC(O)CCC(O)C(O)CC(O)C[C@]3(O)C[C@H](O)C(C(=O)O)C(C2)O3)C(O)[C@H](N)C1O (stereo not given in full)	normalized growth	1.01
Oc1c(Cl)cc(Cl)c(Cl)c1Cc1c(O)c(Cl)cc(Cl)c1Cl	normalized growth	0.0729
CC(=O)O[C@H]1C[C@@H](OC(C)=O)C(C)(C)C2C[C@@H](OC(C)=O)[C@]3(C)C(CC[C@@]4(C)[C@H](c5ccoc5)OC(=O)[C@H]5O[C@]543)[C@]21C (stereo not given in full)	normalized growth	1
COC(=O)/C(C)=C\CC12OC(C)(C)C3CC(C=C4C(=O)c5c(OC)c6c(c(CC=C(C)C)c5OC431)OC(C)(CCC=C(C)C)C=C6)C2=O (stereo not given)	normalized growth	0.988
COc1cc(OC)c2c(=O)cc(-c3ccccc3)oc2c1	normalized growth	0.914
O=c1cccc2n1CC1CC2CN2CCCC[C@@H]12 (stereo not given in full)	normalized growth	0.972
O=c1oc2ccccc2cc1O	normalized growth	0.974
FC(F)(F)c1cccc(N2CCNCC2)c1	normalized growth	0.976
CC(=O)O[C@]1(C)CC[C@@]23CC1C(C)(C)[C@@H]2CC[C@H]3C	normalized growth	1.02
COC1C=CC23c4cc5c(cc4CN(CC2O)[C@@H]3C1)OCO5 (stereo not given in full)	normalized growth	1
CCCn1c(=O)c2[nH]c(C3CCCC3)nc2n(CCC)c1=O	normalized growth	0.949
CC(=O)O[C@H]1C[C@@H](OC(C)=O)C(C)(C)C2C[C@@H](O)[C@]3(C)C(CC[C@@]4(C)[C@H](c5ccoc5)OC(=O)[C@H]5O[C@]543)[C@]21C (stereo not given in full)	normalized growth	0.966
COC(=O)[C@@H]1OC(=O)C2OC23[C@@]1(C)CCC1[C@]2(C)C(C[C@@H](O)[C@]13C)C(C)(C)[C@H](OC(C)=O)C[C@@H]2OC(C)=O (stereo not given in full)	normalized growth	0.995
CC1(C)C(=O)[C@@H]2O[C@@H]2[C@@]2(C)C1C[C@@H](O)[C@]1(C)C2CC[C@@]2(C)[C@H](c3ccoc3)OC(=O)C3OC321 (stereo not given in full)	normalized growth	0.976
